Below, each of the molecules is paired with its reported normalised viability value.
- System: HCC1599
- METHOD: normalised viability (% of control), CellTiter-Blue; higher = more viable cells (about 100 = DMSO control)
- CONDITION PARAMETERS: 1000 nM; incubation time: 72 h
PROPERTY NAME: normalised viability

1. COc1ccc(-c2cc3c(C)nc(N)nc3n([C@H]3CC[C@H](OCCO)CC3)c2=O)cn1 | 35.1%
2. Nc1ccccc1NC(=O)c1ccc(CNc2nccc(-c3cccnc3)n2)cc1 [Mocetinostat] | 54.6%
3. O=C1c2c(O)ccc(O)c2C(=O)c2c(NCCNCCO)ccc(NCCNCCO)c21 [Mitoxantrone] | 69.8%
4. C[C@]12O[C@H](C[C@]1(O)CO)n1c3ccccc3c3c4c(c5c6ccccc6n2c5c31)CNC4=O [Lestaurtinib] | 64.8%
